The measured values listed here are drawn from patent US20230234943A1.

# test-target: Human TREX1 enzyme (amino acids 1-242) (Homo sapiens)
# Sequence (Q9NSU2 1-242): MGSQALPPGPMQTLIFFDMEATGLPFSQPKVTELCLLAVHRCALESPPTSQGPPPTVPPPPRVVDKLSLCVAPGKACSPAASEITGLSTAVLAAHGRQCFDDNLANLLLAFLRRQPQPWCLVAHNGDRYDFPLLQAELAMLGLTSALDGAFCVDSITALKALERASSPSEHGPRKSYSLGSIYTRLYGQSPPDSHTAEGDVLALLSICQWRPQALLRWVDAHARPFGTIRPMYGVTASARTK
For each entry below, report its IC50 value.

Please review the following examples before continuing.
structure-smiles	observed-measurement
COc1cc(-c2nc3ccc(C(=O)NC4CCNCC4)cc3n2C2(C)COC2)c(F)c(O)c1O	0.1 to 1 µM
COc1cc(-c2nc3ccccc3n2C2COC2)c(C(F)(F)F)c(O)c1O	10 to 100 µM
COc1cc(-c2nc3cc(N4CCN(C(=O)c5ccc(Cl)cc5)CC4)ccc3[nH]2)cc(O)c1O	> 100 µM
COc1cc(-c2nc3ccc(C(=O)NC(C)(C)C)cc3n2C2(C)COC2)c(F)c(O)c1O	0.1 to 1 µM
CCc1c(-c2nc3ccccc3n2C2(C)COC2)cc(OC)c(O)c1O	10 to 100 µM
COc1cc(-c2nc3cc(N(C)C)ccc3[nH]2)cc(O)c1O	> 100 µM

# batch size: 2; output IC50 per entry
1. COc1cc(-c2nc3cc(N4CC5(CN(C(C)=O)C5)C4)ccc3[nH]2)cc(O)c1O
2. COc1cc(-c2nc3nc(N4CCOCC4)ncc3[nH]2)cc(O)c1O

1. 10 to 100 µM
2. > 100 µM

* * *

Each entry below carries its measured IC50, system: Human TREX1 enzyme (amino acids 1-242) (Homo sapiens, UniProt Q9NSU2).

compound	IC50
COc1cc(-c2nc3cc(N4CCN(C)C(C)(C)C4)ccc3[nH]2)cc(O)c1O [Example 121]	> 100 µM
COc1cc(-c2nc3cc(N4CCOCC4)ccc3s2)cc(O)c1O [Example 156]	10 to 100 µM

For the record O=C(O)c1ccc(-c2nc3ccccc3n2C2COC2)c(F)c1O [Example 141] , what value of IC50 is listed for Human TREX1 enzyme (amino acids 1-242) (Homo sapiens, UniProt Q9NSU2)? > 100 µM

* * *

Hi there, I'd appreciate the recorded melting point for every entry that follows.
Answers are plain numbers, in °C.

compound	melting point, °C
COc1cc(-c2nc3ccc(C(N)=O)cc3n2C2(C)COC2)c(F)c(O)c1O [Example 180]	170.4
COc1cc(-c2nc3ccccc3n2C2CCC2)c(C2CC2)c(O)c1O [Example 174]	209
COc1ccc2[nH]c(-c3cc(OC)c(O)c(O)c3C)nc2c1 [Example 175]	249.1
COc1cc(-c2nc3ccc(C#N)cc3n2C2(C)COC2)c(F)c(O)c1O [Example 179]	209

Now examine the next entry.
Dear colleague, I am looking for the recorded melting point of the following compound: COc1cc(-c2nc3ccc(S(C)(=O)=O)cc3n2C2(C)COC2)c(F)c(O)c1O [Example 178] 257.6

* * *

# test-target: Human TREX1 enzyme (amino acids 1-242) (Homo sapiens, UniProt Q9NSU2)
# Sequence (Q9NSU2 1-242): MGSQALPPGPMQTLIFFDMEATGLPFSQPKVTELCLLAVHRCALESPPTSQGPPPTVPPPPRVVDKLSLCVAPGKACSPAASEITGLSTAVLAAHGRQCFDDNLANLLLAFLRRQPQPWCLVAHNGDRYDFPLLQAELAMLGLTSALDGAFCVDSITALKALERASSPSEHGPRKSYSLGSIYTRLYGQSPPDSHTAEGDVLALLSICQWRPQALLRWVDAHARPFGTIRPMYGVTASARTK
pIC50: −log10 of the molar value.
observed-property: pIC50

A selection of reference data follows.
molecule	pIC50
COc1cc(-c2nc3nc(N4CCOCC4)ccc3n2C2CCOC2)cc(O)c1O (stereo not drawn)	< 4.00
COc1cc(-c2nc3cccc(NC(C)=O)c3n2C2(C)COC2)c(F)c(O)c1O	6.00 to 7.00
COc1cc(-c2nc3ccccc3n2C2(C)COC2)c(C)c(O)c1O	6.00 to 7.00

Batch request: pIC50 for each of the following molecules.
1. COc1cc(-c2nc3ccccc3n2C(C)C)c(C)c(O)c1O
2. COc1cc(-c2nc3cc(N4CCN(c5ccncc5)CC4)ccc3[nH]2)cc(O)c1O

1. 5.00 to 6.00
2. 4.00 to 5.00
